Molecular target: T1, integrin αvβ3, purified from human placenta (human, UniProt P06756 31-1048; P05106 27-788)
T1 construct: mature; Native heterodimer, immobilized on ELISA plates or on the BIAcore chip; biotinylated in capture lift and capture ELISA screens; also called αvβ3 receptor; vitronectin receptor
T1 sequence (P06756 31-1048, form in doubt, chain 1 of 2): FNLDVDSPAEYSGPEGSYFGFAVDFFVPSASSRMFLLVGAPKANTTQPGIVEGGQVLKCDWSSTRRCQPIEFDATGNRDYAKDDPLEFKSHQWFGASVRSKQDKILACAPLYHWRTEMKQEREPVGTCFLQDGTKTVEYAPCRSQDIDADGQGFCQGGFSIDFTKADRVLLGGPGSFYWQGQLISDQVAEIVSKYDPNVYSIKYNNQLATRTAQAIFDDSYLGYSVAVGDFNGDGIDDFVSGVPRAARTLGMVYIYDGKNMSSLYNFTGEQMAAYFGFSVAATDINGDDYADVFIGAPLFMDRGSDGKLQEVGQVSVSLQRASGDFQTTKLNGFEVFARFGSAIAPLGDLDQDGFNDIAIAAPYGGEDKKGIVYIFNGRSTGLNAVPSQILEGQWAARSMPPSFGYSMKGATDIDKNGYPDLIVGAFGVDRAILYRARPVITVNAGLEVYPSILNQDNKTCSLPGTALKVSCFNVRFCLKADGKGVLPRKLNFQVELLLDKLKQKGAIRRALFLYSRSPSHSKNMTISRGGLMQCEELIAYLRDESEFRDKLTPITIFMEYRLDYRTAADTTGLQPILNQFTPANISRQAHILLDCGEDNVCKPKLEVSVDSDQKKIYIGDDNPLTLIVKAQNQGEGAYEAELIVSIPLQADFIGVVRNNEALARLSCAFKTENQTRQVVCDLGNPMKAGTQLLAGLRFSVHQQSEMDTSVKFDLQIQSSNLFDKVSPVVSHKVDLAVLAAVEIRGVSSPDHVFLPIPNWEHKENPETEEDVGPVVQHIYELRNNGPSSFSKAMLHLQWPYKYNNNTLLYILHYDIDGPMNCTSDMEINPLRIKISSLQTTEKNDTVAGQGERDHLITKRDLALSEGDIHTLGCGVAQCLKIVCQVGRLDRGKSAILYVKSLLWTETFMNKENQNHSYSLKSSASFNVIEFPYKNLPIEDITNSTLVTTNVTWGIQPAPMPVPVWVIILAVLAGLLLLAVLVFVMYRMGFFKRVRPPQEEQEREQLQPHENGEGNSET
T1 sequence (P05106 27-788, form in doubt, chain 2 of 2): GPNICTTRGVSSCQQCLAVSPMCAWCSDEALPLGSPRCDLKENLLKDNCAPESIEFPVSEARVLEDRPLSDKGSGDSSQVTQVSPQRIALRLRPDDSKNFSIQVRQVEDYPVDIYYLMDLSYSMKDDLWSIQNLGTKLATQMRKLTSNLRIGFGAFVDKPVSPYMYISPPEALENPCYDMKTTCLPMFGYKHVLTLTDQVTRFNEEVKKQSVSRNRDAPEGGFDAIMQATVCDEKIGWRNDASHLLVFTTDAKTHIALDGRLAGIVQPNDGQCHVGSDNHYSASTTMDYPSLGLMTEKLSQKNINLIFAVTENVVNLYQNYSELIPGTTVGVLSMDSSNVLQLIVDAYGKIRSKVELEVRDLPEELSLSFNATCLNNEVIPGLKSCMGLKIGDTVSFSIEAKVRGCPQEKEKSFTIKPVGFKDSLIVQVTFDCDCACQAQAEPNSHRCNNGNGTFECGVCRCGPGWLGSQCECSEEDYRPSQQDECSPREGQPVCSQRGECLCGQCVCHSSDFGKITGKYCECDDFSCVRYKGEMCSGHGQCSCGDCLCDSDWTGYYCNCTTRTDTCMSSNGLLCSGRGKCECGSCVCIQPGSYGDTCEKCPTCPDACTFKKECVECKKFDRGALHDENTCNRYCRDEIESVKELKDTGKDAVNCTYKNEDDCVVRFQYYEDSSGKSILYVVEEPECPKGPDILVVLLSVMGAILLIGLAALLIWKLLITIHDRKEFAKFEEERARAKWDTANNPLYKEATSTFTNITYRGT
Experiment: SPR (BIAcore), purified Fab over immobilized αvβ3
The following binders are shown together with reported fold slower dissociation rate than parent values.

binder	reported result
LM609 grafted antibody combinatorial clone C37 (Fab, V domains shown, Fab) VH: QVQLVESGGGVVQPGRSLRLSCAASGFTFSSYDMSWVRQAPGKGLEWVAKVSSGGGSTYYLDTVQGRFTISRDNSKNTLYLQMNSLRAEDTAVYYCARHNYGSFYEWGQGTTVTVSS VL: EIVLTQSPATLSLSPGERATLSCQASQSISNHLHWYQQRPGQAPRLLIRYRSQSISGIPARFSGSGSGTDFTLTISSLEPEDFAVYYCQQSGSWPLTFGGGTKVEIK	> 10 fold

# input for lookup
For the binder LM609 grafted antibody combinatorial clone 8F9 (Fab, V domains shown, Fab) VH: QVQLVESGGGVVQPGRSLRLSCAASGFTFSSYDMSWVRQAPGKGLEWVAKVSSGGGSTYYPDTVQGRFTISRDNSKNTLYLQMNSLRAEDTAVYYCARHNHGSFASWGQGTTVTVSS VL: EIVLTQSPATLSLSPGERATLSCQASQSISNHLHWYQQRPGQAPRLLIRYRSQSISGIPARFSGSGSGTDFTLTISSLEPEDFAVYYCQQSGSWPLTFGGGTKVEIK , what fold slower dissociation rate than parent is on record? > 10 fold
